tested_target: UniProt:P30838
test: ALDH3A1 biochemical assay (benzaldehyde/NADP+, diaphorase-resazurin readout, 1,536-well)
experimental_context: Table S4, biochemical
outcome_measure: Efficacy

COc1ccc(Cl)c(N2CCN(c3nc(C(=O)NCc4cccc(C)c4)cs3)CC2)c1 : -89.43
Cc1cccc(CNC(=O)c2csc(N3CCN(c4cncc(Br)c4)CC3)n2)c1 : -92.59
Cc1cccc(CNC(=O)c2csc(N3CCN(c4c(Cl)cccc4Cl)CC3)n2)c1 : -89.06
Cc1cccc(CNC(=O)c2csc(N3CCN(c4ccccc4C)CC3)n2)c1 : -88.86

* * *

tested_target: Human ALDH3A1 (Homo sapiens)
Sequence (P30838 whole entry): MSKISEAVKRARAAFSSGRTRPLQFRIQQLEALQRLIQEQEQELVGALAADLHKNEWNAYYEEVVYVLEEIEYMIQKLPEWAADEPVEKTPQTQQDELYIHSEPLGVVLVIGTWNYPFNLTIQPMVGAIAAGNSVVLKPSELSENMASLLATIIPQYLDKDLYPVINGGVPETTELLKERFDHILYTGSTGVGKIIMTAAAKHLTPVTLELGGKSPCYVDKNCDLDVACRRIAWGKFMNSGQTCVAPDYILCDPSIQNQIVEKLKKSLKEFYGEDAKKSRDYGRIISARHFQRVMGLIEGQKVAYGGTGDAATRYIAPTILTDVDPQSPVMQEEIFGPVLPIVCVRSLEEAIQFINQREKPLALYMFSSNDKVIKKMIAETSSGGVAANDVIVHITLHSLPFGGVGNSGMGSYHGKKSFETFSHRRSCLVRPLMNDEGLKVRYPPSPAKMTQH
test: ALDH3A1 biochemical assay (benzaldehyde/NADP+, diaphorase-resazurin readout, 1,536-well)
experimental_context: Table S5, biochemical
outcome_measure: Efficacy

Completed entries (count: 6):
CC(=O)c1cccc(CNC(=O)c2csc(N3CCN(c4cccc(C(F)(F)F)c4)CC3)n2)c1 : -100.97
O=C(NCc1cccc(Cl)c1)c1csc(N2CCN(c3cccc(C(F)(F)F)c3)CC2)n1 : -97.73
O=C(NCc1cccc(COc2ccccc2)c1)c1csc(N2CCN(c3cccc(C(F)(F)F)c3)CC2)n1 : -100.33
CC(=O)c1ccc(CNC(=O)c2csc(N3CCN(c4cccc(C(F)(F)F)c4)CC3)n2)cc1 : -100.00
O=C(NCc1cccc(C2CC2)c1)c1csc(N2CCN(c3cccc(C(F)(F)F)c3)CC2)n1 : -107.26
O=C(NCc1ccc(C(F)F)c(F)c1)c1csc(N2CCN(c3cccc(C(F)(F)F)c3)CC2)n1 : -99.03

A = N#Cc1ccc(CNC(=O)c2csc(N3CCN(c4cccc(C(F)(F)F)c4)CC3)n2)cc1F
B = O=C(Nc1ccncc1)c1ccc(CNC(=O)c2csc(N3CCN(c4cccc(C(F)(F)F)c4)CC3)n2)cc1
C = O=C(Nc1ccc(CNC(=O)c2csc(N3CCN(c4cccc(C(F)(F)F)c4)CC3)n2)cc1)c1ccc(F)cc1
D = O=C(Nc1ccc(F)cc1)c1ccc(CNC(=O)c2csc(N3CCN(c4cccc(C(F)(F)F)c4)CC3)n2)cc1
Provide the items ranked by increasing Efficacy. Response format: the labels, sorted as the prompt asks.
A, D, C, B
(A: -100.05, D: -65.00, C: -39.06, B: -22.34)

* * *

tested_target: OE19 (3A1) (Homo sapiens, UniProt P30838)
test: Cellular ALDEFLUOR assay in OE19 cells (preferential ALDH3A1 expression)
experimental_context: Table S4, cellular curve class
outcome_measure: Cell_CC-v2

Cc1cccc(CNC(=O)c2csc(N3CCN(c4ccccc4Br)CC3)n2)c1 : -1.3
Cc1cccc(CNC(=O)c2csc(N3CCN(c4ccc(C#N)cc4)CC3)n2)c1 : -1.1
Cc1cccc(CNC(=O)c2csc(N3CCN(c4ccc(OC(F)(F)F)cc4)CC3)n2)c1 : -1.1

* * *

tested_target: Human ALDH3A1 (Homo sapiens)
test: ALDH3A1 biochemical assay (benzaldehyde/NADP+, diaphorase-resazurin readout, 1,536-well)
experimental_context: Table S4, biochemical curve class
outcome_measure: CC-v2

Solved cases (3 shown):
Cc1cccc(CNC(=O)c2csc(N3CCN(c4cc(C(F)(F)F)nc5ccccc45)CC3)n2)c1 : -1.1
Cc1cccc(CNC(=O)c2csc(N3CCN(c4c(Cl)cccc4Cl)CC3)n2)c1 : -1.1
Cc1cccc(CNC(=O)c2csc(N3CCN(c4cccc(C(F)(F)F)n4)CC3)n2)c1 : -1.1

1 = Cc1cccc(CNC(=O)c2csc(N3CCN(c4cccc(Sc5ccc(C)cc5C)c4)CC3)n2)c1
2 = Cc1cccc(CNC(=O)c2csc(N3CCN(c4ccc(O)cc4)CC3)n2)c1
Which has the smaller recorded CC-v2, 1 or 2 ? Write the label of whichever entry you select.
2
(2: -1.2, 1: 4)

Where do the numbers come from? From paper PMC13266984.
